# experimental target: T1, Human IL-33 Flag®His (human)
# T1 construct: Mature IL-33 with C-terminal FLAG 10xHis tag, from E. coli; biotinylated via free cysteines where used biotinylated; also called Mature Human IL-33_FH; human IL-33 FH
# T1 chain: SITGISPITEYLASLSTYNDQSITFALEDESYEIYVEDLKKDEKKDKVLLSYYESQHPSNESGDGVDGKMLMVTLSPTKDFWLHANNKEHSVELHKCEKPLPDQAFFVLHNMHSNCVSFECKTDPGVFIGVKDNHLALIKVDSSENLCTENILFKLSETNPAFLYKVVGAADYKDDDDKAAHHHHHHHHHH
# method: ELISA, biotinylated antigen on streptavidin plate, anti-human IgG HRP
property: EC50
Hi, when you answer, please include the unit after the number. Thanks!

Q. # query: EC50 of entry IL330107 IgG (antibody, V domains shown, IgG1 or IgG1-TM) VH: QMQLVQSGGGVVQPGGSLRLSCAASGFTFSSYAMSWVRQAPGKGLEWVSAISGSGGSTYYADSVKGRFTISRDNSKNTLYLQMNSLRAEDTAVYYCAKPFPSYWYFDLWGKGTLVTVSS VL: SYVLTQPPSVSVSPGQTARITCSGDALPKQYAYWYQQKPGQAPVLVIYKDSERPSGIPERFSGSSSGTTVTLTISGVQAEDEADYYCQSADSSGTYRVFGGGTQLTVL
A. 0.86 nM
